measured target: Delta-type opioid receptor (Rattus norvegicus, UniProt P33533)
Sequence (P33533 whole entry): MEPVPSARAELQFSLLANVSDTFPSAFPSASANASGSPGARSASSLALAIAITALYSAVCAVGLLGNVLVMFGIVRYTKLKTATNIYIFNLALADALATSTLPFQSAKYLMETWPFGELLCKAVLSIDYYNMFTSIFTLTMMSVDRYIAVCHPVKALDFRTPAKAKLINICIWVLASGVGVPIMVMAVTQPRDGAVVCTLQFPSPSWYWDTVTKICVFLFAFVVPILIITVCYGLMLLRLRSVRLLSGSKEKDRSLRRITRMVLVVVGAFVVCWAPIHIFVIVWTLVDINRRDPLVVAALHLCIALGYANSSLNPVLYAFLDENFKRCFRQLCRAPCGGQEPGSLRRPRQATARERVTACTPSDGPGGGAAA
measurement description: Displacement of [3H]diprenorphine opioid receptor delta 1 on crude membrane fractions obtained from the whole rat brain (minus cerebellum)
Type: tissue-based
Residues, ends and D or L forms follow the SMILES beside them. *: point of attachment. X1 = CC1C2Cc3ccc(O)cc3[C@]1(C)CCN2CC1C[C@]1(C(=O)*)c1ccccc1
Class field: derived from Ki; ranges lowest = under 3 µM, middle = from 3 µM up to 6 µM, highest = 6 µM and over

Ask: Where would CCCCC(=N)NCCCCCNC(=O)C(CC(C)C)NC(=O)CNC(=O)[C@]1(c2ccccc2)CC1CN1CC[C@@]2(C)c3cc(O)ccc3CC1C2C (stereo partly drawn) land among the classes by reported Ki?
Reply: lowest

Ask: Looking at CCCCC(=N)NCCCCCNC(=O)C(CC(C)C)NC(=O)[C@]1(c2ccccc2)CC1CN1CC[C@@]2(C)c3cc(O)ccc3CC1C2C (stereo partly drawn) , which class would you pick?
Reply: middle

Ask: State the class of the compound shown: CCC(=N)NCCCCCCNC(=O)C(CC(C)C)NC(=O)CNC(=O)[C@]1(c2ccccc2)CC1CN1CC[C@@]2(C)c3cc(O)ccc3CC1C2C (stereo partly drawn)
Reply: middle

Ask: Pick a category. Item: CC(C)CC(NC(=O)CNC(=O)[C@]1(c2ccccc2)CC1CN1CC[C@@]2(C)c3cc(O)ccc3CC1C2C)C(=O)NCCCN (stereo partly drawn)
Reply: highest

Ask: Sort CCC(=N)NCCCCNC(=O)C(CC(C)C)NC(=O)CNC(=O)[C@]1(c2ccccc2)CC1CN1CC[C@@]2(C)c3cc(O)ccc3CC1C2C (stereo partly drawn) into one of the categories.
Reply: highest

Ask: Band of CCCCC(=N)NCCCCCCNC(=O)C(CC(C)C)NC(=O)[C@]1(c2ccccc2)CC1CN1CC[C@@]2(C)c3cc(O)ccc3CC1C2C (stereo partly drawn) ?
Reply: middle

Ask: Place this compound in its band: CCCC(=N)NCCCCCCNC(=O)C(CC(C)C)NC(=O)[C@]1(c2ccccc2)CC1CN1CC[C@@]2(C)c3cc(O)ccc3CC1C2C (stereo partly drawn)
Reply: middle

Ask: State the band of CCCC(=N)NCCCCCCNC(=O)C(CC(C)C)NC(=O)CNC(=O)[C@]1(c2ccccc2)CC1CN1CC[C@@]2(C)c3cc(O)ccc3CC1C2C (stereo partly drawn)
Reply: lowest

Ask: Lab log: CC(C)CC(NC(=O)CNC(=O)[C@]1(c2ccccc2)CC1CN1CC[C@@]2(C)c3cc(O)ccc3CC1C2C)C(=O)NCCCCCN (stereo partly drawn) — assign Ki category
Reply: highest

Ask: Any idea which band CC[C@H](C)[C@H](NC(=O)[C@H](CCCN=C(N)N)NC(=O)[C@H](CCCN=C(N)N)NC(=O)[C@]1(c2ccccc2)C[C@@H]1CN1CC[C@@]2(C)c3cc(O)ccc3CC1C2C)C(=O)OC (stereo partly drawn) is in?
Reply: highest

Ask: For CCC(=N)NCCCCCNC(=O)C(CC(C)C)NC(=O)CNC(=O)[C@]1(c2ccccc2)CC1CN1CC[C@@]2(C)c3cc(O)ccc3CC1C2C (stereo partly drawn) , which Ki bin applies?
Reply: middle

Ask: Sort CCC(=N)NCCCNC(=O)C(CC(C)C)NC(=O)CNC(=O)[C@]1(c2ccccc2)CC1CN1CC[C@@]2(C)c3cc(O)ccc3CC1C2C (stereo partly drawn) into one of the categories.
Reply: highest

Ask: Dear colleague, I would appreciate it if you could identify the bin for CCCC(=N)NCCCNC(=O)C(CC(C)C)NC(=O)CNC(=O)[C@]1(c2ccccc2)CC1CN1CC[C@@]2(C)c3cc(O)ccc3CC1C2C (stereo partly drawn) and reply at your convenience.
Reply: highest

Ask: Pick a category. Item: CCCCC(=N)NCCCCCCNC(=O)C(CC(C)C)NC(=O)CNC(=O)[C@]1(c2ccccc2)CC1CN1CC[C@@]2(C)c3cc(O)ccc3CC1C2C (stereo partly drawn)
Reply: lowest

Ask: Which category fits this record: CCCCC(=N)NCCCNC(=O)C(CC(C)C)NC(=O)CNC(=O)[C@]1(c2ccccc2)CC1CN1CC[C@@]2(C)c3cc(O)ccc3CC1C2C (stereo partly drawn)
Reply: middle

Ask: Assign a category based on measured Ki for CC(C)CC(NC(=O)[C@]1(c2ccccc2)CC1CN1CC[C@@]2(C)c3cc(O)ccc3CC1C2C)C(=O)NCCCCCCN=C(N)N (stereo partly drawn) and give only the class name.
Reply: lowest

Ask: The entry to classify is CC(C)CC(NC(=O)CNC(=O)[C@]1(c2ccccc2)CC1CN1CC[C@@]2(C)c3cc(O)ccc3CC1C2C)C(=O)NCCCNC(=N)N (stereo partly drawn) ; which class holds it?
Reply: middle

Ask: Which category does the recorded Ki put CC[C@H](C)[C@H](NC(=O)[C@H](CCCNC(=N)N)NC(=O)[C@H](CCCNC(=N)N)NC(=O)CNC(=O)[C@]1(c2ccccc2)CC1CN1CC[C@@]2(C)c3cc(O)ccc3CC1C2C)C(=O)OC (stereo partly drawn) (X1-GRRI-OMe) in?
Reply: highest

Ask: Each compound maps to one class by Ki. Which class for CC(C)CC(NC(=O)CNC(=O)[C@]1(c2ccccc2)CC1CN1CC[C@@]2(C)c3cc(O)ccc3CC1C2C)C(=O)NCCCCN (stereo partly drawn) ?
Reply: highest

Ask: Returns: class label. Input: CC(C)CC(NC(=O)[C@]1(c2ccccc2)CC1CN1CC[C@@]2(C)c3cc(O)ccc3CC1C2C)C(=O)NCCCCCCN (stereo partly drawn)
Reply: middle

Ask: In plain terms, what class is CCCCC(=N)NCCCCNC(=O)C(CC(C)C)NC(=O)CNC(=O)[C@]1(c2ccccc2)CC1CN1CC[C@@]2(C)c3cc(O)ccc3CC1C2C (stereo partly drawn) ?
Reply: middle

Ask: # bin lookup: classify CCCC(=N)NCCCCCNC(=O)C(CC(C)C)NC(=O)CNC(=O)[C@]1(c2ccccc2)CC1CN1CC[C@@]2(C)c3cc(O)ccc3CC1C2C (stereo partly drawn) by its Ki
Reply: middle

Ask: For CCC(=N)NCCCCCCNC(=O)C(CC(C)C)NC(=O)[C@]1(c2ccccc2)CC1CN1CC[C@@]2(C)c3cc(O)ccc3CC1C2C (stereo partly drawn) , which Ki bin applies?
Reply: middle

Ask: Hi there! Could you help me figure out the category for CCCC(=N)NCCCCNC(=O)C(CC(C)C)NC(=O)CNC(=O)[C@]1(c2ccccc2)CC1CN1CC[C@@]2(C)c3cc(O)ccc3CC1C2C (stereo partly drawn) please?
Reply: highest

Ask: Note: place this compound into its band. Item: CC(C)CC(NC(=O)CNC(=O)[C@]1(c2ccccc2)CC1CN1CC[C@@]2(C)c3cc(O)ccc3CC1C2C)C(=O)NCCCCN=C(N)N (stereo partly drawn)
Reply: middle

Ask: Which category does the recorded Ki put CC(C)CC(NC(=O)CNC(=O)[C@]1(c2ccccc2)CC1CN1CC[C@@]2(C)c3cc(O)ccc3CC1C2C)C(=O)NCCCCCNC(=N)N (stereo partly drawn) in?
Reply: middle

----------
measured target: Opioid receptors; mu & kappa (UniProt P41145+P35372)
Sequence (P35372 whole entry, looked up): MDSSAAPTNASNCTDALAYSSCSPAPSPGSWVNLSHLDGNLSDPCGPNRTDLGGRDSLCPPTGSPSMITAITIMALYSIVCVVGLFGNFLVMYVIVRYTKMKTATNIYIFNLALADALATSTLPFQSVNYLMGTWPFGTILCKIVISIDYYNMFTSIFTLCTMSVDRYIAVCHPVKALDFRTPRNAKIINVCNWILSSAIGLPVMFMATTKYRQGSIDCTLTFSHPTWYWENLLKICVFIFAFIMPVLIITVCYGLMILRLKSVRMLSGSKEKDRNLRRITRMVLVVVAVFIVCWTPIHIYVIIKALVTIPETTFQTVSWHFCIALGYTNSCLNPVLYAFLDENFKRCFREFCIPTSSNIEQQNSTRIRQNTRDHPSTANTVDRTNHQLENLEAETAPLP
Sequence (P41145 whole entry, looked up): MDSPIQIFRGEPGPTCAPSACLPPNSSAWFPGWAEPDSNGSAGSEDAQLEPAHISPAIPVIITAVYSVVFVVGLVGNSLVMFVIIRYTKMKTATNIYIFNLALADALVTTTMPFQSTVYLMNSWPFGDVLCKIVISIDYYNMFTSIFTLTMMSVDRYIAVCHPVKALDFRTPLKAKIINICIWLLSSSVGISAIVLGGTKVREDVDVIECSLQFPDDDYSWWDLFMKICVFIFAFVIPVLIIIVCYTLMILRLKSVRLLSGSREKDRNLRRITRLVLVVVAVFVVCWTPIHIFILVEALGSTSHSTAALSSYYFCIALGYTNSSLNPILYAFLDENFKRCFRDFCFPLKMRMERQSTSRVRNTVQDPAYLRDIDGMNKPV
measurement description: Ratio of affinity towards mu and kappa opioid receptors
Type: protein assay
Answer each item with its documented Selectivity ratio.
Output spec: single numeric token, no unit.

Ask: Determine its reported Selectivity ratio: CC(C)CC(NC(=O)CNC(=O)[C@]1(c2ccccc2)CC1CN1CC[C@@]2(C)c3cc(O)ccc3CC1C2C)C(=O)NCCCN (some centres not stated)
Reply: 57

Ask: Please give the documented Selectivity ratio of CCC(=N)NCCCCCNC(=O)C(CC(C)C)NC(=O)CNC(=O)[C@]1(c2ccccc2)CC1CN1CC[C@@]2(C)c3cc(O)ccc3CC1C2C (some centres not stated)
Reply: 70.5

Ask: Let me know recorded Selectivity ratio for CC[C@H](C)[C@H](NC(=O)[C@H](CCCN=C(N)N)NC(=O)[C@H](CCCN=C(N)N)NC(=O)[C@]1(c2ccccc2)C[C@@H]1CN1CC[C@@]2(C)c3cc(O)ccc3CC1C2C)C(=O)OC (some centres not stated) , thanks.
Reply: 58.7

Ask: Report Selectivity ratio for CCCC(=N)NCCCCNC(=O)C(CC(C)C)NC(=O)[C@]1(c2ccccc2)CC1CN1CC[C@@]2(C)c3cc(O)ccc3CC1C2C (some centres not stated)
Reply: 11.2

Ask: Look up and state reported Selectivity ratio for CC(C)CC(NC(=O)[C@]1(c2ccccc2)CC1CN1CC[C@@]2(C)c3cc(O)ccc3CC1C2C)C(=O)NCCCCN=C(N)N (some centres not stated)
Reply: 11.8

Ask: For the compound CCCC(=N)NCCCNC(=O)C(CC(C)C)NC(=O)[C@]1(c2ccccc2)CC1CN1CC[C@@]2(C)c3cc(O)ccc3CC1C2C (some centres not stated) , give its measured Selectivity ratio value.
Reply: 15

Ask: Tell us which Selectivity ratio value is on record for CC(C)CC(NC(=O)[C@]1(c2ccccc2)CC1CN1CC[C@@]2(C)c3cc(O)ccc3CC1C2C)C(=O)NCCCCCN (some centres not stated)
Reply: 11.8

Entry source: ChEMBL document CHEMBL1133607
